The reported numbers originate from ChEMBL document CHEMBL1128407.

# Target: Tubulin alpha chain (Sus scrofa) (UniProt P02550)
# Sequence (P02550 whole entry, looked up): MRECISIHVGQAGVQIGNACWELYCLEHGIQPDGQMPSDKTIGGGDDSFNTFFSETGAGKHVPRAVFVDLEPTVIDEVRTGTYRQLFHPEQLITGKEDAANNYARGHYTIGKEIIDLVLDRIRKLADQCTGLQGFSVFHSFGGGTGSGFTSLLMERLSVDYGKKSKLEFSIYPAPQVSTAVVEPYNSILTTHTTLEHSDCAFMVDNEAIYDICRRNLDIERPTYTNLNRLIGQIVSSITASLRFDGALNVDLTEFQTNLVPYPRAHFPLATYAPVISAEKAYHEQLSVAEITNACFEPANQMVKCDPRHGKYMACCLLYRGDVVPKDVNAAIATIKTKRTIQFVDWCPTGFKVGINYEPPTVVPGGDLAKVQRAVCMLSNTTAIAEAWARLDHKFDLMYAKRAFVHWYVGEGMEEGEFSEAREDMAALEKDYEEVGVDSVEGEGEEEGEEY
# Assay Summary: Compound is evaluated for tubulin polymerization (ratio of compound relative to paclitaxel (EC0.01).
Listing of entries alongside the reported Ratio.

[
  {
    "Compound": "CC(=O)O[C@H]1C(=O)[C@]2(C)[C@@H](O)CC3OC[C@@]3(OC(C)=O)[C@H]2[C@H](OC(=O)c2ccccc2)[C@]2(O)C[C@H](OC(=O)[C@H](O)[C@@H](NC(=O)c3ccccc3)c3ccoc3)C(C)=C1C2(C)C (some centres undefined)",
    "Ratio": 0.85
  },
  {
    "Compound": "CC(=O)O[C@H]1C(=O)[C@]2(C)[C@@H](O)CC3OC[C@@]3(OC(=O)N3CC3)[C@H]2[C@H](OC(=O)c2ccccc2)[C@]2(O)C[C@H](OC(=O)[C@H](O)[C@@H](NC(=O)c3ccccc3)c3ccco3)C(C)=C1C2(C)C (some centres undefined)",
    "Ratio": 0.7
  },
  {
    "Compound": "CC(=O)O[C@H]1C(=O)[C@]2(C)[C@@H](O)CC3OC[C@@]3(OC(C)=O)[C@H]2[C@H](OC(=O)c2ccccc2)[C@]2(O)C[C@H](OC(=O)[C@H](O)[C@@H](NC(=O)OC(C)(C)C)c3ccccc3)C(C)=C1C2(C)C (some centres undefined)",
    "Ratio": 0.55
  },
  {
    "Compound": "CC(=O)O[C@H]1C(=O)[C@]2(C)[C@@H](O)CC3OC[C@@]3(OC(=O)N3CC3)[C@H]2[C@H](OC(=O)c2ccccc2)[C@]2(O)C[C@H](OC(=O)[C@H](O)[C@@H](NC(=O)OC(C)(C)C)c3ccco3)C(C)=C1C2(C)C (some centres undefined)",
    "Ratio": 0.8
  }
]
